- Test system: Foxtail, Giant (giant foxtail, Setaria faberi)
- assayOverview: Test A1 postemergence, Foxtail, Giant
- Format: in vivo
- measurementContext: Postemergence, 125 g ai/ha; 0 to 100 scale
parameter: Plant response rating, Foxtail, Giant
API note: the answer field is a bare number with no unit suffix.

Task: Give the value of Plant response rating, Foxtail, Giant reported for the following: Cc1cc(C)c(N(COC(=O)OC(C)C)S(=O)(=O)C(F)(F)F)cc1C1=NOC2CCCC12 (centres unmarked) [Compound 314]
Output: 30

Task: Output Plant response rating, Foxtail, Giant of Cc1c(NS(=O)(=O)C(F)(F)F)cc(C(=O)N2CCC(Cl)CC2)c(C)c1C [Compound 356]
Output: 40

Task: Tell us which Plant response rating, Foxtail, Giant value is on record for CCC1CC(c2cc(N(COC(=O)C(C)(C)C)S(=O)(=O)C(F)(F)F)c(C)cc2C)=NO1 (centres unmarked) [Compound 376]
Output: 20

Task: Dear colleague, please send me the reported Plant response rating, Foxtail, Giant for Cc1c(C(=O)N2CCC(F)(F)CC2)cc(N(COC(=O)C(C)(C)C)S(=O)(=O)C(F)(F)F)c(C)c1C [Compound 360] when you can.
Output: 0

Task: For the molecule Cc1cc(C)c(N(C(=O)OCC(C)C)S(=O)(=O)C(F)(F)F)cc1C1=NOC2CCCC12 (centres unmarked) [Compound 299] , give its reported Plant response rating, Foxtail, Giant.
Output: 30

Task: Determine its reported Plant response rating, Foxtail, Giant: CCc1cc(C)c(C2=NOC3(CCCC3)C2)cc1NS(=O)(=O)C(F)(F)F [Compound 311]
Output: 20

Task: Return the recorded Plant response rating, Foxtail, Giant value; entry: CCC1CC(c2cc(NS(=O)(=O)C(F)(F)F)c(C)cc2C)=NO1 (centres unmarked) [Compound 375]
Output: 10

Task: # return recorded Plant response rating, Foxtail, Giant for entry Cc1cc(F)c(NS(=O)(=O)C(F)(F)F)cc1C1=NOC2(CCCC2)C1 [Compound 303]
Output: 80

Task: Give the value of Plant response rating, Foxtail, Giant reported for the following: CCc1cc(C)c(N(COC(=O)C(C)(C)C)S(=O)(=O)C(F)(F)F)cc1C1=NOC2CCCC12 (centres unmarked) [Compound 378]
Output: 10

Task: Consider the molecule COC1CCN(C(=O)c2cc(NS(=O)(=O)C(F)(F)F)c(C)c(C)c2C)CC1 [Compound 367] and give its recorded Plant response rating, Foxtail, Giant.
Output: 90

====

// reported Plant response rating, Oat, Wild for each item listed
- System: Oat, Wild (wild oat, Avena fatua)
- assayOverview: Test A1 preemergence, Oat, Wild
- Format: in vivo
- measurementContext: 31 g ai/ha, 0 to 100 scale (0 no effect, 100 complete control)
Hey, just send me the number, nothing else.

{"columns": ["molecule", "targetOrSystem", "Plant response rating, Oat, Wild"],
 "data": [
  ["CCC1CC(c2cc(N(COC(=O)C(C)(C)C)S(=O)(=O)C(F)(F)F)c(C)cc2C)=NO1 (stereo not drawn)", "Oat, Wild (wild oat, Avena fatua)", 0],
  ["Cc1c(NS(=O)(=O)C(F)(F)F)cc(C2=NOC3(CCCC3)C2)c(C)c1C", "Oat, Wild (wild oat, Avena fatua)", 20],
  ["Cc1cc(Br)c(NS(=O)(=O)C(F)(F)F)cc1C1=NOC2(CCCC2)C1", "Oat, Wild (wild oat, Avena fatua)", 20],
  ["Cc1c(NS(=O)(=O)C(F)(F)F)cc(C(=O)N2CC(C)OC(C)C2)c(C)c1C (stereo not drawn)", "Oat, Wild (wild oat, Avena fatua)", 0]
]}

Task: Identify Plant response rating, Oat, Wild associated with the molecule CCOC(=O)N(c1cc(C(=O)N2CCCCC2)c(C)c(C)c1C)S(=O)(=O)C(F)(F)F
Output: 0

Task: Note Plant response rating, Oat, Wild for the molecule shown: Cc1cc(C)c(N(COC(=O)N(C)C)S(=O)(=O)C(F)(F)F)cc1C1=NOC2CCCC12 (stereo not drawn)
Output: 0

Task: Supply recorded Plant response rating, Oat, Wild for CCC1ON=C(c2cc(NS(=O)(=O)C(F)(F)F)c(C)cc2C)C1CC (stereo not drawn) here.
Output: 30

Task: Read the entry C#CCN(C)C(=O)c1cc(NS(=O)(=O)C(F)(F)F)c(Cl)c(F)c1C and write its reported Plant response rating, Oat, Wild.
Output: 0

Task: In one line, give reported Plant response rating, Oat, Wild of the entry CCOC(=O)N(c1cc(C2=NOC3CCCC23)c(CC)cc1C)S(=O)(=O)C(F)(F)F (stereo not drawn) .
Output: 0

Task: Provide one value: measured Plant response rating, Oat, Wild of Cc1c(NS(=O)(=O)C(F)(F)F)cc(C(=O)N2CCC(Cl)CC2)c(C)c1C
Output: 0

Task: Query Plant response rating, Oat, Wild for Cc1cc(C)c(N2CC3(CCCCC3)CC2=O)cc1NS(=O)(=O)C(F)(F)F
Output: 20

Task: Quick one: give measured Plant response rating, Oat, Wild for CCOC(=O)N(c1cc(C(=O)N2CCOCC2)c(C)c(C)c1C)S(=O)(=O)C(F)(F)F
Output: 0

Task: Given Cc1c(NS(=O)(=O)C(F)(F)F)cc(C(=O)N2CCCCC2)c(C)c1C , respond with its Plant response rating, Oat, Wild.
Output: 10

Task: For the molecule CCC1ON=C(c2cc(N(COC(=O)C(C)(C)C)S(=O)(=O)C(F)(F)F)c(C)cc2C)C1CC (stereo not drawn) , report Plant response rating, Oat, Wild.
Output: 0

Task: Give the reported value of Plant response rating, Oat, Wild for this record: Cc1cc(C)c(N(COC(=O)C(C)(C)C)S(=O)(=O)C(F)(F)F)cc1C(=O)N1CCOCC1
Output: 0

====

- System: Ryegrass, Italian (Italian ryegrass, Lolium multiflorum)
- assayOverview: Test A postemergence, Ryegrass, Italian
- Assay type: in vivo
- measurementContext: Postemergence, 125 g ai/ha; visual injury approx. 10 days; 0 to 100 scale (0 no effect, 100 complete control)
parameter: Plant response rating, Ryegrass, Italian
Write the number on its own, no unit after it.

{"columns": ["compound", "testResult"],
 "data": [
  ["COC1CCN(C(=O)c2cc(NS(=O)(=O)C(F)(F)F)c(C)cc2C)C1 (centres unmarked) [Compound 113]", 50]
]}

Now for the compound whose Plant response rating, Ryegrass, Italian we want.
Task: Please give measured Plant response rating, Ryegrass, Italian of the following entry: Cc1cc(C)c(C(=O)N2COC(C)(C)C2)cc1NS(=O)(=O)C(F)(F)F [Compound 112]
Output: 60

====

- System: Foxtail, Giant (giant foxtail, Setaria faberi)
- assayOverview: Test A postemergence, Foxtail, Giant
- Assay type: in vivo
- measurementContext: Postemergence, 125 g ai/ha; 0 to 100 scale (0 no effect, 100 complete control)
Plant response rating, Foxtail, Giant of 10 or higher: True. Under 10: False.

{"columns": ["compound", "assignedCategory"],
 "data": [
  ["COC(=O)N(c1cc(N2CCC3(CCCCC3)C2=O)c(C)cc1C)S(=O)(=O)C(F)(F)F [Compound 266]", "False"],
  ["Cc1cc(C)c(C2=NOC(C)(CCl)C2)cc1NS(=O)(=O)C(F)(F)F (stereo not shown) [Compound 226]", "True"],
  ["Cc1cc(Cl)c(NS(=O)(=O)C(F)(F)F)cc1C(=O)N1CCC(Cl)CC1 [Compound 224]", "True"],
  ["Cc1cc(C)c(N2CC3(CCOCC3)OC2=O)cc1NS(=O)(=O)C(F)(F)F [Compound 156]", "True"]
]}

Task: Does the compound Cc1cc(Cl)c(N(S(=O)(=O)C(F)(F)F)S(=O)(=O)C(F)(F)F)cc1C1=NOC2(CCCCC2)C1 [Compound 217] have recorded Plant response rating, Foxtail, Giant that is 10 or more?
Output: False

Task: Hi, just wondering whether Cc1cc(C)c(N(S(=O)(=O)C(F)(F)F)S(=O)(=O)C(F)(F)F)cc1C1=NOC2(CCCC2)C1 [Compound 208] shows Plant response rating, Foxtail, Giant of 10 or higher.
Output: False

====

- Test system: ragweed (common ragweed, Ambrosia artemisiifolia)
- assayOverview: Test A preemergence, ragweed
- Format: in vivo
- measurementContext: Preemergence, 31 g ai/ha; visual injury, 0 to 100 scale (0 no effect, 100 complete control), approx. 10 days
- Excerpt: Seeds of plant species selected from barnyardgrass (Echinochloa crus-galli), kochia (Bassia scoparia), ragweed (common ragweed, Ambrosia artemisiifolia), Ryegrass, Italian (Italian ryegrass, Lolium multiflorum), Foxtail, Giant (giant foxtail, Setaria faberi), and pigweed (Amaranthus retroflexus) were planted into a blend of loam soil and sand and treated preemergence with a directed soil spray using test chemicals formulated in a non-phytotoxic solvent mixture which included a surfactant. […]
parameter: Plant response rating, Ragweed
The answer should be written as a number, with no unit following it.

In the examples that follow, each entry is paired with its recorded Plant response rating, Ragweed.
{"columns": ["compound", "Plant response rating, Ragweed"],
 "data": [
  ["CSc1cc(-c2cc(NS(=O)(=O)C(F)(F)F)c(C)cc2C)c(=O)n(C)n1 [Compound 36]", 0],
  ["COC1CCN(C(=O)c2cc(NS(=O)(=O)C(F)(F)F)c(C)cc2C)C1 (centres unmarked) [Compound 113]", 0],
  ["CCCCC(=O)OCN(c1cc(C2=NOC3(CCCC3)C2)c(C)cc1C)S(=O)(=O)C(F)(F)F [Compound 143]", 0],
  ["Cc1cc(C)c(C(=O)N2CCCC(F)C2)cc1NS(=O)(=O)C(F)(F)F (centres unmarked) [Compound 155]", 90],
  ["COC1CCCN(C(=O)c2cc(N(C(=O)C(C)C)S(=O)(=O)C(F)(F)F)c(C)cc2C)C1 (centres unmarked) [Compound 91]", 0],
  ["Cc1cc(C)c(N(S(=O)(=O)C(F)(F)F)S(=O)(=O)C(F)(F)F)cc1N1CC2(CCOCC2)OC1=O [Compound 157]", 40],
  ["COC1CCCN(C(=O)c2cc(N(COC(C)=O)S(=O)(=O)C(F)(F)F)c(C)cc2C)C1 (centres unmarked) [Compound 96]", 0],
  ["CO[C@@H]1CCCN(C(=O)c2cc(NS(=O)(=O)C(F)(F)F)c(C)cc2C)C1 [Compound 94]", 0],
  ["Cc1c(C(=O)N2CCOCC2)cc(N(S(=O)(=O)C(F)(F)F)S(=O)(=O)C(F)(F)F)c(C)c1F [Compound 174]", 30],
  ["Cc1cc(C)c(N2CC3(CCOCC3)OC2=O)cc1NS(=O)(=O)C(F)(F)F [Compound 156]", 60]
]}

Now for another entry.
Task: Lab note: ragweed (common ragweed, Ambrosia artemisiifolia) assay, enter Plant response rating, Ragweed for Cc1cc(C)c(C2=NOC3(C2)CC(C)CC(C)C3)cc1NS(=O)(=O)C(F)(F)F (single isomer, unassigned) [Compound 167] here
Output: 0
